Source: patent US20240246937A1

- test-target: recombinant IL4I1 (Homo sapiens (Human), UniProt Q96RQ9)
- Sequence (Q96RQ9 22-567): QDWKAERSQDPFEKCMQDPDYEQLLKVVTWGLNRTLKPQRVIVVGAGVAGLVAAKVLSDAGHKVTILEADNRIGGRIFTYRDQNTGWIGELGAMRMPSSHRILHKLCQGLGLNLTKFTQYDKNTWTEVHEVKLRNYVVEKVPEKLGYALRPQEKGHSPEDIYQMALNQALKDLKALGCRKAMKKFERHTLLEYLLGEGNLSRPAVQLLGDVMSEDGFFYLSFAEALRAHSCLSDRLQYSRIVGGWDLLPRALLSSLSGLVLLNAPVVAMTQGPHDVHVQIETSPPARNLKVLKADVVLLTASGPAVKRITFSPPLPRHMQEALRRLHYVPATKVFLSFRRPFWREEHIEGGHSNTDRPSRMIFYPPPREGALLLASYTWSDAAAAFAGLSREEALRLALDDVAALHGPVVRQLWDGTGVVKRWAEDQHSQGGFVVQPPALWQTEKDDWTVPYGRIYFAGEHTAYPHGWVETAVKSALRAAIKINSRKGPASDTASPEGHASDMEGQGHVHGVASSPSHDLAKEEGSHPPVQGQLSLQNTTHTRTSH
- method: IL4I1 Enzymatic Assay (Amplex Red/HRP coupled fluorescence detection of H2O2)
- Format: biochemical
- assay-setup: 240 min; recombinant IL4I1, four-hour pre-incubation with compound
Label satisfied when EC50 is strictly below 20 nM; at or above that, label not satisfied.

- compound: "CC1(N2CCN(Cc3nnc(-c4ccccc4)s3)C(=O)C2=O)CCCCC1"
  cat: "not satisfied"
- compound: "O=C1C(=O)N(C2CCC2)CCN1Cc1ccc(-c2cccc(F)c2)nn1"
  cat: "satisfied"
- compound: "O=c1c(=O)n(C23CC(F)(C2)C3)ccn1Cc1cc(-c2cccnc2)on1"
  cat: "not satisfied"
- compound: "O=C1C(=O)N(C2CCC2)CCN1Cc1cnc(-c2ccccc2)s1"
  cat: "satisfied"
- compound: "O=c1c(=O)n(C23CC(C2)C3)ccn1Cc1ccc(-n2nccn2)nn1"
  cat: "satisfied"
- compound: "O=C1C(=O)N(C2CCCC2)CCN1Cc1ccc(-c2ccccc2)nc1"
  cat: "satisfied"
- compound: "CC(c1ncc(-c2ccccc2)cn1)N1CCN(C2CCC2)C(=O)C1=O (single isomer, unassigned)"
  cat: "not satisfied"
- compound: "O=c1c(=O)n(C2CCCC2)ccn1Cc1cnc(-c2ccccc2)cn1"
  cat: "satisfied"
- compound: "CC1CCC1N1CCN(Cc2ncc(-c3ccccc3)cn2)C(=O)C1=O (centres unmarked)"
  cat: "not satisfied"
- compound: "O=C1C(=O)N(C2(CF)CC2)CCN1Cc1cc(-c2ccccc2)no1"
  cat: "satisfied"
- compound: "O=C1C(=O)N(C2CCC2)CCN1Cc1nnc(-c2ccccc2)s1"
  cat: "satisfied"
- compound: "O=C1C(=O)N([C@H]2C[C@H]3C[C@H]3C2)CCN1Cc1ncc(-c2ccccc2)cn1"
  cat: "satisfied"
- compound: "O=C1C(=O)N(C23CC(C2)C3)CCN1Cc1ccc(-n2ccnn2)nc1"
  cat: "satisfied"
- compound: "CC1(n2ccn(Cc3cc(-c4ccccn4)no3)c(=O)c2=O)CC1"
  cat: "not satisfied"
- compound: "CC12CC(N3CCN(Cc4nnc(-c5ccccc5)s4)C(=O)C3=O)(CO1)C2"
  cat: "not satisfied"
- compound: "O=C1C(=O)N(C2CC(O)C2)CCN1Cc1ccc(-c2ccccc2F)nn1 (centres unmarked)"
  cat: "not satisfied"
- compound: "O=C1C(=O)N(C23CC(F)(C2)C3)CCN1Cc1cc(-c2ccccn2)on1"
  cat: "not satisfied"
- compound: "O=C1C(=O)N([C@@H]2CC[C@@H](c3ccccc3)C2)CCN1Cc1nnc(-c2ccccc2)s1 (single isomer, unassigned) [Example 440A]"
  cat: "satisfied"
- compound: "O=C1C(=O)N(C2CCC2)CCN1Cc1ccc(-c2cccc(F)c2F)nn1"
  cat: "satisfied"
- compound: "O=C1C(=O)N(C23CC(F)(C2)C3)CCN1Cc1ccc(-n2ccnn2)nc1"
  cat: "not satisfied"
- compound: "O=c1c(=O)n(C23CC(C2)C3)ccn1Cc1ccc(-n2nccn2)cn1"
  cat: "satisfied"
- compound: "O=C1C(=O)N(C2(CF)CC2)CCN1Cc1nnc(-c2ccccc2F)s1"
  cat: "not satisfied"
- compound: "O=C1C(=O)N(C2CCCC2)CCN1Cc1ncc(-n2nccn2)cn1"
  cat: "not satisfied"
